# log p values compiled below
Assay: log P (HPLC/MS data of the preparation examples)
Conditions: method [b]: LC-MS at pH 2.7, 0.1% formic acid in water / acetonitrile, linear gradient 10% to 95% acetonitrile

compound: Cn1ncnc1C(=NOCc1cccc(NC(=O)Cc2ccc(Cl)cc2)n1)c1ccccc1
log p: 3.46^[b]
//
compound: Cc1nc(C(=NOCc2cccc(N)n2)c2ccccc2)cs1 (single isomer, unassigned) [Example 174]
log p: 1.47^[b]
//
compound: Cc1cccc(C(=NOCc2cccc(N)n2)c2ncnn2C)c1
log p: 1.08^[b]
//
compound: CC(C)CC(=O)Nc1cccc(CON=C(c2ccccc2)c2nn(C)c(=O)n2C)n1
log p: 2.82^[b]
//
compound: COc1cccc(CC(=O)Nc2cccc(CON=C(c3ccccc3)c3nccn3C)n2)c1
log p: 2.37^[b]
//
compound: CCCCCC(=O)Nc1cccc(CON=C(c2ccccc2)c2csc(C)n2)n1 (single isomer, unassigned) [Example 189]
log p: 4.26^[b]
//
compound: Cn1nc(C(=NOCc2cccc(NC(=O)c3cccs3)n2)c2ccccc2)n(C)c1=O
log p: 2.82^[b]
//
compound: Cn1ncnc1C(=NOCc1cccc(CN2C(=O)c3ccccc3C2=O)n1)c1ccccc1
log p: 2.9^[b]
//
compound: Cn1nc(C(F)(F)F)nc1C(=NOCc1cccc(NC(=O)C(C)(C)C)n1)c1ccccc1
log p: 4.31^[b]
//
compound: Cc1nc(C(=NOCc2cccc(N3C(=O)c4ccccc4C3=O)n2)c2ccccc2)cs1 (single isomer, unassigned) [Example 170]
log p: 3.55^[b]
//
compound: Cn1ncnc1C(=NOCc1cccc(CN)n1)c1ccccc1
log p: 0.99^[b]
//
compound: COc1cccc(CC(=O)Nc2cccc(CON=C(c3cccc(F)c3)c3nccn3C)n2)c1
log p: 2.58^[b]
//
compound: Cn1cnnc1C(=NOCc1cccc(C#CCC2CCCCC2)n1)c1ccccc1
log p: 4.14^[b]
//
compound: Cc1nc(C(=NOCc2cccc(NC(=O)C(C)(C)C)n2)c2ccccc2)cs1
log p: 3.56^[b]
//
compound: Cc1nnsc1C(=NOCc1cccc(N2C(=O)c3ccccc3C2=O)n1)c1ccccc1
log p: 3.69^[b]
//
compound: COc1ccc(CC(=O)Nc2cccc(CON=C(c3ccccc3)c3nccn3C)n2)cc1
log p: 2.33^[b]
//
compound: CCCCCC(=O)Nc1cccc(CON=C(c2ccccc2)c2nc(C(F)(F)F)nn2C)n1
log p: 4.67^[b]

* * *

Assay: log P (HPLC/MS data of the preparation examples)
Details: HPLC (LC-MS) method [b]: pH 2.7, 0.1% formic acid in water and acetonitrile, linear gradient 10% to 95% acetonitrile; EEC directive 79/831 Annex V.A8
assay.readout: log p

compound: Cn1ncnc1C(=NOCc1cccc(N2C(=O)c3ccccc3C2=O)n1)c1ncc(C(F)(F)F)cc1Cl
observed.result: 3.15^[b]
--
compound: CCCCCC(=O)Nc1cccc(CON=C(c2ccsc2)c2cncn2C)n1 (single isomer, unassigned) [Example 426]
observed.result: 1.99^[b]
--
compound: Cn1cncc1C(=NOCc1cccc(N)n1)c1ccsc1 (single isomer, unassigned) [Example 419]
observed.result: 0.32^[b]
--
compound: CC(C)C(=O)Nc1cccc(CON=C(c2ccsc2)c2cncn2C)n1
observed.result: 1.5^[b]
--
compound: CCCC(=O)Nc1nc(CON=C(c2cccs2)c2cncn2C)cs1
observed.result: 1.47^[b]
--
compound: CCCCCC(=O)Nc1cccc(CON=C(c2ncc(C(F)(F)F)cc2Cl)c2ncnn2C)n1
observed.result: 3.85^[b]
--
compound: Cn1ncnc1C(=NOCc1cccc(N)n1)c1ncc(C(F)(F)F)cc1Cl
observed.result: 1.3^[b]
--
compound: CC(C)CC(=O)Nc1nc(CON=C(c2cccs2)c2cncn2C)cs1
observed.result: 1.66^[b]
--
compound: Cn1cncc1C(=NOCc1csc(N)n1)c1ccsc1
observed.result: 0.45^[b]
--
compound: Cn1ncnc1C(=NOCc1csc(NC(=O)C(C)(C)C)n1)c1ncc(C(F)(F)F)cc1Cl
observed.result: 3.27^[b]
--
compound: CCCCCC(=O)Nc1ccnc(CON=C(c2ncc(C(F)(F)F)cc2Cl)c2ncnn2C)n1
observed.result: 3.51^[b]
--
compound: CCCCCC(=O)Nc1cccc(CON=C(c2ccsc2)c2cncn2C)n1 (single isomer, unassigned) [Example 427]
observed.result: 1.99^[b]
--
compound: Cn1ncnc1C(=NOCc1nccc(NC(=O)CCc2ccccc2)n1)c1ncc(C(F)(F)F)cc1Cl
observed.result: 3.39^[b]
--
compound: Cn1ncnc1C(=NOCc1cccc(NC(=O)CCc2ccccc2)n1)c1ncc(C(F)(F)F)cc1Cl
observed.result: 3.73^[b]
--
compound: Cn1ncnc1C(=NOCc1csc(N)n1)c1ncc(C(F)(F)F)cc1Cl
observed.result: 1.56^[b]
--
compound: Cn1cncc1C(=NOCc1csc(NC(=O)C(C)(C)C)n1)c1cccs1
observed.result: 1.67^[b]
--
compound: CCCCCCC(=O)Nc1cccc(CON=C(c2ccsc2)c2cncn2C)n1
observed.result: 2.25^[b]

* * *

Measured log p, listed per entry for reference.
Assay: log P (HPLC/MS data of the preparation examples)
Conditions: method [b]: LC-MS at pH 2.7, 0.1% formic acid in water / acetonitrile, linear gradient 10% to 95% acetonitrile
assay.readout: log p

molecule: Cn1nc(C(=NOCc2cccc(N3C(=O)c4ccccc4C3=O)n2)c2ccccc2)n(C)c1=O
observed.result: 2.66^[b]
//
molecule: CCCCCOC(=O)Nc1cccc(CON=C(c2ccccc2)c2nncn2C)n1
observed.result: 3.29^[b]
//
molecule: Cn1cnnc1C(=NOCc1cccc(C#CCC2CCCC2)n1)c1ccccc1
observed.result: 3.76^[b]
//
molecule: CCCCCOC(=O)Nc1cccc(CON=C(c2ccccc2)c2snnc2C)n1
observed.result: 5.11^[b]
//
molecule: Cc1cc(C(F)(F)F)nn1CC(=O)Nc1cccc(CON=C(c2ccccc2)c2nc(C(F)(F)F)nn2C)n1
observed.result: 4.31^[b]
//
molecule: Cn1ncnc1C(=NOCc1cccc(NC(=O)Cc2cccc(C(F)(F)F)c2)n1)c1ccccc1
observed.result: 3.64^[b]
//
molecule: Cc1nnsc1C(=NOCc1cccc(NC(=O)Cc2ccccc2)n1)c1ccccc1
observed.result: 4.04^[b]
//
molecule: Cn1ncnc1C(=NOCc1cccc(NC(=O)C2CCCCC2)n1)c1ccccc1
observed.result: 3.39^[b]
//
molecule: Cn1cnnc1C(=NOCc1cccc(N2C(=O)c3ccccc3C2=O)n1)c1ccccc1
observed.result: 2.3^[b]
//
molecule: Cn1ccnc1C(=NOCc1cccc(NC(=O)OCCF)n1)c1ccccc1
observed.result: 1.81^[b]
//
molecule: Cn1cnnc1C(=NOCc1cccc(C#Cc2ccccc2)n1)c1ccccc1
observed.result: 3.15^[b]
//
molecule: Cn1c(C(=NOCc2cccc(N3C(=O)c4ccccc4C3=O)n2)c2ccccc2)nnc1C(F)(F)F
observed.result: 3.31^[b]
//
molecule: CC(C)COC(=O)Nc1cccc(CON=C(c2ccccc2)c2nncn2C)n1
observed.result: 2.88^[b]
//
molecule: Cn1ncnc1C(=NOCc1cccc(N2CCCCC2=O)n1)c1ccccc1
observed.result: 2.18^[b]
//
molecule: Cc1nc(C(=NOCc2cccc(NC(=O)CC(C)C)n2)c2ccccc2)cs1 (single isomer, unassigned) [Example 171]
observed.result: 3.46^[b]
//
molecule: Cn1nc(C(=NOCc2cccc(NC(=O)CCC3CCCC3)n2)c2ccccc2)n(C)c1=O
observed.result: 3.71^[b]
//
molecule: Cc1nnsc1C(=NOCc1cccc(NC(=O)CCc2ccccc2)n1)c1ccccc1
observed.result: 4.31^[b]

* * *

Assay: log P (HPLC/MS data of the preparation examples)
Details: LC-MS, method [b]: pH 2.7 with 0.1% formic acid in water and acetonitrile, linear gradient 10% to 95% acetonitrile
Recorded log p by entry

molecule: Nc1ccnc(CON=C(c2ccsc2)c2snc(Cl)c2Cl)n1
log p: 1.86^[b]

molecule: CCCCS(=O)(=O)N(c1cccc(CON=C(c2ccc(C)cc2)c2ncnn2C)n1)S(=O)(=O)CCCC
log p: 4.51^[b]

molecule: CC(C)CC(=O)Nc1ccnc(CON=C(c2cccs2)c2nccn2C)n1
log p: 1.59^[b]

molecule: CC(C)CCOC(=O)Nc1cccc(CON=C(c2ccccc2)c2ncnn2C)n1
log p: 3.9^[b]

molecule: Cn1ncnc1C(=NOCc1ccccn1)c1ccccc1
log p: 1.51^[b]

molecule: COC(=O)CCCC(=O)Nc1cccc(CON=C(c2ccccc2)c2ncnn2C)n1
log p: 2.39^[b]

molecule: Cn1cncc1C(=NOCc1nccc(N(C(=O)C2CC2)C(=O)C2CC2)n1)c1ccccc1
log p: 1.75^[b]

molecule: CCCCCCC(=O)Nc1cccc(CON=C(c2ccc(OC)c(Br)c2)c2ncc(C(F)(F)F)cc2Cl)n1
log p: 5.82^[b]

molecule: CCCCCC(=O)Nc1cccc(CON=C(c2ccc(C)cc2)c2ncnn2C)n1
log p: 3.71^[b]

molecule: CCCCCOC(=O)Nc1nc(CON=C(c2cccs2)c2ncnn2C)cs1
log p: 3.53^[b]

molecule: Cn1nncc1C(=NOCc1cccc(N)n1)c1ccccc1
log p: 1.11^[b]

molecule: CCCCCC(=O)Nc1ccnc(CON=C(c2cccs2)c2ncnn2C)n1
log p: 3^[b]

molecule: Cn1ncnc1C(=NOCc1cccc(NC(=O)CCCCCl)n1)c1ccccc1
log p: 2.98^[b]

molecule: Cn1ncnc1C(=NOCc1cccc(CNC(=O)CCc2ccccc2)n1)c1ccccc1
log p: 2.56^[b]

molecule: CC(C(=O)Nc1cccc(CON=C(c2ccccc2)c2nccn2C)n1)c1ccccc1 (stereo not drawn)
log p: 2.21^[b]

molecule: CCCCC(=O)NCc1cccc(CON=C(c2ccccc2)c2ncnn2C)n1
log p: 2.28^[b]

molecule: CCCCCC(=O)Nc1cccc(CON=C(c2ccccc2C)c2ncnn2C)n1
log p: 3.46^[b]

molecule: CCCCCC(=O)Nc1cccc(CON=C(c2ccccc2)c2nccn2C)n1
log p: 2.23^[b]

molecule: CCCCC(=O)Nc1ccnc(CON=C(c2ccccc2)c2cncn2C)n1
log p: 1.75^[b]

molecule: Cc1ccccc1C(=NOCc1cccc(N)n1)c1ncnn1C
log p: 0.96^[b]

molecule: CCCCCOC(=O)Nc1cccc(CON=C(c2ccccc2)c2ncnn2C)n1
log p: 3.96^[b]

molecule: Cn1ncnc1C(=NOCc1csc(NC(=O)CCc2ccccc2)n1)c1cccs1
log p: 3.09^[b]

molecule: Cn1ccnc1C(=NOCc1nccc(NC(=O)COCc2ccccc2)n1)c1ccccc1
log p: 2.04^[b]

molecule: Cn1ccnc1C(=NOCc1cccc(NC(=O)CCC2CCCCC2)n1)c1ccccc1
log p: 3.67^[b]

molecule: CC(C)CC(=O)Nc1cccc(CON=C(c2ccccc2)c2nccn2C)n1
log p: 1.89^[b]

molecule: CC(C)CC(=O)Nc1nc(CON=C(c2ccccc2)c2cncn2C)cs1
log p: 1.84^[b]

molecule: CC(C)CCOC(=O)Nc1cccc(CON=C(c2ccccc2)c2nccn2C)n1
log p: 2.51^[b]

molecule: Cn1cncc1C(=NOCc1cccc(N)n1)c1ccccc1 (single isomer, unassigned) [Example 97]
log p: 0.25^[b]

molecule: CCCCCCC(=O)Nc1ccnc(CON=C(c2ccccc2)c2cncn2C)n1
log p: 2.2^[b]

molecule: CCCCCOC(=O)Nc1cccc(CON=C(c2cccs2)c2ncnn2C)n1
log p: 3.82^[b]

molecule: Cn1ncnc1C(=NOCc1ncc(C(F)(F)F)cc1Cl)c1ccccc1
log p: 3.44^[b]

molecule: CCCCCOC(=O)Nc1cccc(CON=C(c2ccccc2)c2nccn2C)n1
log p: 2.6^[b]

molecule: C#CCOC(=O)Nc1cccc(CON=C(c2ccccc2)c2nccn2C)n1
log p: 1.66^[b]

molecule: Cc1ccc(C(=NOCc2nccc(NC(=O)C3CC3)n2)c2ncnn2C)cc1
log p: 2.46^[b]

molecule: CC(C)C(=O)Nc1nc(CON=C(c2ccccc2)c2cncn2C)cs1
log p: 1.63^[b]

molecule: CC(C)CC(=O)Nc1cccc(CON=C(c2cccs2)c2nccn2C)n1
log p: 1.91^[b]
